biological target: Protein farnesyltransferase (Bos taurus) (UniProt P29702+P49355); assay: In vitro inhibition of bovine Farnesyltransferase at a 1 ug/mL.; type: protein-complex assay
Where a SMILES comes first, the peptide text is derived from it. The star is where a group is joined. Isovaleryl = CC(C)CC(=O)*; Isobutyryl = CC(C)C(=O)*; Hexanoyl = CCCCCC(=O)*; Bz = O=C(c1ccccc1)*
Cut-off 30% on inhibition, inclusive. At or above means met; below means not met.

> print(dat)
                                   compound  assigned.category
1  COC(=O)[C@H](Cc1cccc(OC(=O)/C=C/c2ccccc2)c1)NC(=O)[C@@H](NC(=O)[C@@H](N)CS)C(C)C            not met
2  COC(=O)[C@H](Cc1ccc(OC(=O)c2ccccc2)cc1)NC(=O)[C@@H](NC(=O)[C@@H](N)CS)C(C)C (H-Cys-Val-Tyr(Bz)-OMe)            not met
3  CCCCCC(=O)Oc1ccc(C[C@H](NC(=O)[C@@H](NC(=O)[C@@H](N)CS)C(C)C)C(=O)OC)cc1 (H-Cys-Val-Tyr(Hexanoyl)-OMe)                met
4  COC(=O)[C@H](Cc1ccc(OC(=O)CC(C)C)cc1)NC(=O)[C@@H](NC(=O)[C@@H](N)CS)C(C)C (H-Cys-Val-Tyr(Isovaleryl)-OMe)                met
5  COC(=O)[C@H](CO)NC(=O)[C@@H](NC(=O)[C@@H](N)CS)C(C)C (H-Cys-Val-Ser-OMe)            not met

Q) Would you say `COC(=O)[C@H](COC(=O)c1ccc(OC)cc1)NC(=O)[C@@H](NC(=O)[C@@H](N)CS)C(C)C` shows inhibition at minimum 30%?
A) met

Q) Given COC(=O)[C@H](Cc1ccc(OC(=O)C(C)C)cc1)NC(=O)[C@@H](NC(=O)[C@@H](N)CS)C(C)C (H-Cys-Val-Tyr(Isobutyryl)-OMe) , state whether its inhibition is at least 30%.
A) not met

Q) # check: inhibition of `COC(=O)[C@H](Cc1ccc(OC(=O)/C=C/c2ccccc2)cc1)NC(=O)[C@@H](NC(=O)[C@@H](N)CS)C(C)C` is greater than or equal to 30%
A) not met

Q) Does `COC(=O)[C@H](Cc1cccc(OC(=O)C=C(C)C)c1)NC(=O)[C@@H](NC(=O)[C@@H](N)CS)C(C)C` have a reported inhibition of at least 30%?
A) met

====

biological target: Protein farnesyltransferase (Bos taurus, UniProt P29702+P49355); test: In vitro inhibition of bovine Farnesyltransferase.
Where a SMILES comes first, the peptide text is derived from it. The star is where a group is joined. Bz = O=C(c1ccccc1)*
Assay metric: IC50 (µM)
Numeric answer only, unit µM assumed.

> print(dat)
                                   molecule  reported.measurement
1  COC(=O)[C@H](COC(=O)c1ccccc1)NC(=O)[C@@H](NC(=O)[C@@H](N)CS)C(C)C (H-Cys-Val-Ser(Bz)-OMe)                   0.9
2  COC(=O)[C@H](CCSC)NC(=O)[C@H](Cc1ccccc1)NC(=O)[C@@H](NC(=O)[C@@H](N)CS)C(C)C                   5.8

Moving on to another molecule below.
Q) What does the record list as IC50 for COC(=O)[C@H](Cc1ccc(OC(C)=O)cc1)NC(=O)[C@@H](NC(=O)[C@@H](N)CS)C(C)C (H-Cys-Val-Tyr(Ac)-OMe) ?
A) 48

====

molecular target: Protein farnesyltransferase (Bos taurus) (UniProt P29702+P49355); test: In vitro inhibition of bovine Farnesyltransferase at a 1 ug/mL.; format: protein-complex assay
Where a SMILES comes first, the peptide text is derived from it. The star is where a group is joined. Octanoyl = CCCCCCCC(=O)*; PhAc = O=C(Cc1ccccc1)*
The following molecules are listed with their measured inhibition values.
Give just the numeric value; % need not be written.

Consider the following illustrative entries.
> print(dat)
                                   molecule  measure.unit  reported.measurement
1  CCCCCCCC(=O)Oc1ccc(C[C@H](NC(=O)[C@@H](NC(=O)[C@@H](N)CS)C(C)C)C(=O)OC)cc1 (H-Cys-Val-Tyr(Octanoyl)-OMe)             %                    17
2  COC(=O)[C@H](COC(=O)/C=C/c1ccccc1)NC(=O)[C@@H](NC(=O)[C@@H](N)CS)C(C)C             %                  16.3
3  COC(=O)[C@H](Cc1ccc(OC(=O)Cc2ccccc2)cc1)NC(=O)[C@@H](NC(=O)[C@@H](N)CS)C(C)C (H-Cys-Val-Tyr(PhAc)-OMe)             %                    32

Lab note: next molecule to report on.
Q) Can you share its inhibition? I mean this molecule: COC(=O)[C@H](Cc1ccc(OC(=O)CC(C)CCCC(C)C)cc1)NC(=O)[C@@H](NC(=O)[C@@H](N)CS)C(C)C (some centres undefined)
A) 10

====

molecular target: Protein farnesyltransferase (Bos taurus) (UniProt P29702+P49355); experiment: In vitro inhibition of bovine Farnesyltransferase at a 1 ug/mL.; format: protein-complex assay
Where a SMILES comes first, the peptide text is derived from it. The star is where a group is joined. Bz = O=C(c1ccccc1)*
inhibition: recorded values
Provide a numeric answer, followed by its unit.

> print(dat)
                                   compound                              study.system  reported.measurement
1  COC(=O)[C@H](COC(=O)C=C(C)C)NC(=O)[C@@H](NC(=O)[C@@H](N)CS)C(C)C  Protein farnesyltransferase (Bos taurus) (UniProt P29702+P49355)                 38.6%
2  COC(=O)[C@H](Cc1ccc(OC(=O)C=C(C)C)cc1)NC(=O)[C@@H](NC(=O)[C@@H](N)CS)C(C)C  Protein farnesyltransferase (Bos taurus) (UniProt P29702+P49355)                 79.6%

Q) Requested field: inhibition. Item: COC(=O)[C@H](COC(=O)c1ccccc1)NC(=O)[C@@H](NC(=O)[C@@H](N)CS)C(C)C (H-Cys-Val-Ser(Bz)-OMe)
A) 69.3%

====

target: Protein farnesyltransferase (Bos taurus, UniProt P29702+P49355); assay: In vitro inhibition of bovine Farnesyltransferase.
pIC50: −log10 of the molar value. Where a SMILES comes first, the peptide text is derived from it. The star is where a group is joined. Isovaleryl = CC(C)CC(=O)*; Octanoyl = CCCCCCCC(=O)*; Bz = O=C(c1ccccc1)*
Kindly return 1 if reported pIC50 is no lower than 5; return -1 if it is lower.

Example entries and their recorded answers appear below.
> print(dat)
                                   compound  assigned.category
1  COC(=O)[C@H](COC(=O)c1ccc(OC)cc1)NC(=O)[C@@H](NC(=O)[C@@H](N)CS)C(C)C                  1
2  COC(=O)[C@H](Cc1ccc(OC(=O)c2ccccc2)cc1)NC(=O)[C@@H](NC(=O)[C@@H](N)CS)C(C)C (H-Cys-Val-Tyr(Bz)-OMe)                 -1
3  COC(=O)[C@H](COC(=O)c1ccc(Cl)cc1)NC(=O)[C@@H](NC(=O)[C@@H](N)CS)C(C)C                  1
4  COC(=O)[C@H](COC(=O)c1ccc(C)cc1)NC(=O)[C@@H](NC(=O)[C@@H](N)CS)C(C)C                  1
5  CCCCCCCC(=O)Oc1ccc(C[C@H](NC(=O)[C@@H](NC(=O)[C@@H](N)CS)C(C)C)C(=O)OC)cc1 (H-Cys-Val-Tyr(Octanoyl)-OMe)                 -1

Q) hey, is pIC50 for this one >= 5? `COC(=O)[C@H](Cc1ccc(OC(=O)/C=C/c2ccccc2)cc1)NC(=O)[C@@H](NC(=O)[C@@H](N)CS)C(C)C`
A) -1

Q) Is it the case that COC(=O)[C@H](Cc1ccc(OC(=O)CC(C)C)cc1)NC(=O)[C@@H](NC(=O)[C@@H](N)CS)C(C)C (H-Cys-Val-Tyr(Isovaleryl)-OMe) has pIC50 reaching or exceeding 5?
A) 1

Q) Is pIC50 at least 5? Consider `COC(=O)[C@H](Cc1cccc(OC(=O)/C=C/c2ccccc2)c1)NC(=O)[C@@H](NC(=O)[C@@H](N)CS)C(C)C`
A) -1

Q) hey, is pIC50 for this one >= 5? `COC(=O)[C@H](Cc1ccc(OC(=O)C=C(C)C)cc1)NC(=O)[C@@H](NC(=O)[C@@H](N)CS)C(C)C`
A) 1
